# Tested on: EKVX NSCLC
# assay.name: NCI-60 one-dose screen, 48 h
# measurement.setup: 10 µM unless noted
Compounds without any hit were thinned out: in the full panel of roughly 83,000, 20% have a hit. Active and inactive are the calls of the source. The calls were made as follows: active = growth percent below 10; inactive = the rest.
Bench note: report the call from T (active), F (inactive)

Examples from the recorded data:
# compound, label
records = [
    ("CNC(=O)c1cccc(Cn2nc(C)c(NC(=O)c3ccc(COc4ccc(C(F)(F)F)cc4C)cc3)c2C)c1", "F"),
    ("COc1cccc(-c2cc(C(=O)Nc3ccc(/C=C/c4ccc(OC5CCN(C)CC5)cc4)cc3)ccc2OC)c1", "F"),
]

Query :: Please share the test call associated with Cc1nn(-c2ccccc2)c(Cl)c1/C=C/C(=O)c1ccc(F)cc1 .
Result :: F

Query :: Please share the test call associated with COc1ccccc1/C=C1\Oc2cc(OCCN3CCCC3)ccc2C1=O .
Result :: F

Query :: Please share the test call associated with C=C1C(=O)O[C@H]2[C@H]1CC/C(C(=O)NCCCCCNC(=O)/C1=C/CC[C@@]3(C)O[C@H]3[C@H]3OC(=O)C(=C)[C@@H]3CC1)=C\CC[C@@]1(C)O[C@@H]21 .
Result :: F

Origin of values: PubChem BioAssay (NCI)
